The origin of these recorded values is the Kinase Knowledgebase extract (Sharma et al. 2016).

target: UniProt P24941; test: Enzyme Assay
Measurement Label: IC50 (nM)
Give the value, in units of nM, as a plain number.

Ask | Requested read-out: IC50. Entry: CNc1nc(C)c(-c2ccnc(Nc3cccc(S(=O)(=O)NC(C)=O)c3)n2)s1
Reply | 3200

Ask | Requested read-out: IC50. Entry: CCNc1nc(C)c(-c2ccnc(Nc3ccc(S(N)(=O)=O)cc3)n2)s1
Reply | 6

Ask | Requested read-out: IC50. Entry: CCNc1nc(C)c(-c2ccnc(Nc3ccc(N4CCN(Cc5ccccc5)CC4)cc3)n2)s1
Reply | 3200

Ask | Requested read-out: IC50. Entry: CNc1nc(C)c(-c2ccnc(Nc3cccc(S(C)(=O)=O)c3)n2)s1
Reply | 6

Ask | Requested read-out: IC50. Entry: CCNc1nc(C)c(-c2ccnc(Nc3ccc(N4CCNCC4)cc3)n2)s1
Reply | 50

Ask | Requested read-out: IC50. Entry: CCNc1nc(C)c(-c2ccnc(Nc3ccc(CNC(C)=O)cc3)n2)s1
Reply | 120

Ask | Requested read-out: IC50. Entry: CCNc1nc(C)c(-c2ccnc(Nc3cccc(CC(=O)OCCOC)c3)n2)s1
Reply | 3200

Ask | Requested read-out: IC50. Entry: CCOC(=O)Cc1cccc(NS(=O)(=O)c2ccc(Nc3nccc(-c4sc(NC)nc4C)n3)cc2)c1
Reply | 3200

Ask | Requested read-out: IC50. Entry: CCNc1nc(C)c(-c2ccnc(Nc3ccc(S(=O)(=O)NCc4ccccc4)cc3)n2)s1
Reply | 3200

Ask | Requested read-out: IC50. Entry: CCNc1nc(C)c(-c2ccnc(Nc3ccc(S(=O)(=O)NCCOC)cc3)n2)s1
Reply | 12

====

pIC50: −log10 of the molar value.
Measurement Label: pIC50

Ask | Item Cc1ccc(Nc2nccc(-c3sc(N)nc3C)n2)cc1S(=O)(=O)N1CCOCC1 with MAPK14 (human) - pIC50?
Reply | < 5.00

Ask | Item CNc1nc(C)c(-c2ccnc(Nc3ccc(C)c(S(=O)(=O)N4CCOCC4)c3)n2)s1 with MAPK14 (human) - pIC50?
Reply | < 5.00

====

target: CDK2 (UniProt P24941); experiment: Enzyme Assay
Give log10(IC50) for every item shown.
Record value = log10 of IC50 given in nM.

Ask | Item CNc1nc(C)c(-c2ccnc(Nc3cccc(S(=O)(=O)NC)c3)n2)s1 with CDK2 (UniProt P24941) - log10(IC50)?
Reply | 1.78

Ask | Item COCCNS(=O)(=O)c1cccc(Nc2nccc(-c3sc(N)nc3C)n2)c1 with CDK2 (UniProt P24941) - log10(IC50)?
Reply | 2.41

Ask | Item Cc1nc(N)sc1-c1ccnc(Nc2cccc(S(=O)(=O)N3CCOCC3)c2)n1 with CDK2 (UniProt P24941) - log10(IC50)?
Reply | 3.51

Ask | Item CNc1nc(C)c(-c2ccnc(Nc3ccc(S(C)(=O)=O)cc3)n2)s1 with CDK2 (UniProt P24941) - log10(IC50)?
Reply | 0.30

Ask | Item Cc1nc(C)c(-c2ccnc(Nc3cccc(S(=O)(=O)NCCO)c3)n2)s1 with CDK2 (UniProt P24941) - log10(IC50)?
Reply | 2.51

Ask | Item CCNc1nc(C)c(-c2ccnc(Nc3ccc(N4CCNCC4)cc3)n2)s1 with CDK2 (UniProt P24941) - log10(IC50)?
Reply | 2.40

Ask | Item CNc1nc(C)c(-c2ccnc(Nc3ccc(S(=O)(=O)NCCOC)cc3)n2)s1 with CDK2 (UniProt P24941) - log10(IC50)?
Reply | 0.48

Ask | Item CNc1nc(C)c(-c2ccnc(Nc3ccc(C)c(Br)c3)n2)s1 with CDK2 (UniProt P24941) - log10(IC50)?
Reply | 2.51

Ask | Item CNc1nc(C)c(-c2ccnc(Nc3cccc(S(=O)(=O)NCCO)c3)n2)s1 with CDK2 (UniProt P24941) - log10(IC50)?
Reply | 2.51

Ask | Item Cc1nc(C)c(-c2ccnc(Nc3cccc(S(C)(=O)=O)c3)n2)s1 with CDK2 (UniProt P24941) - log10(IC50)?
Reply | 2.51

====

Give pIC50 for every item shown.
target: CDK2 (UniProt P24941); test: Enzyme Assay
Expect pIC50 as a plain number equal to -log10 of the molar concentration.

Ask | Requested read-out: pIC50. Entry: CNc1nc(C)c(-c2ccnc(Nc3ccc(C)c(S(=O)(=O)N4CCOCC4)c3)n2)s1
Reply | 5.49

Ask | Requested read-out: pIC50. Entry: CCNS(=O)(=O)c1ccc(Nc2nccc(-c3sc(C)nc3C)n2)cc1
Reply | 7.22

Ask | Requested read-out: pIC50. Entry: Cc1nc(N(C)c2cccnc2)sc1-c1ccnc(Nc2ccc(N3CCOCC3)cc2)n1
Reply | 5.49

Ask | Requested read-out: pIC50. Entry: CNc1nc(C)c(-c2ccnc(Nc3cc(OC)cc(OC)c3)n2)s1
Reply | 6.49

Ask | Requested read-out: pIC50. Entry: COCCOC(=O)COc1cccc(Nc2nccc(-c3sc(N)nc3C)n2)c1
Reply | 6.00
